system: PANC-1 complex spheroid growth, percent test/control; experiment: Anticancer human tumor PANC-1 cell line growth inhibition [Asc]; conditions: second compound 0.0316 µM; first compound 0.3 µM; stronger effect = lower value;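 also: spheroids exposed to agents for 7 days; percent viability relative to DMSO vehicle wells taken as 100%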

# Molecule, Measured Target, Readout Unit, viability, T/C
records = [
    ("CCN1C(C(=O)NC23CCC(C(=O)O)(CC2)CC3)C(c2cccc(Cl)c2F)C2(C(=O)Nc3cc(Cl)ccc32)C12CCCCC2 (stereo not drawn) + Cc1c(S(C)(=O)=O)c(-c2cc(F)cc(N3CCN(c4ccc(NS(=O)(=O)c5ccc(NC(CCN6CCC(C(=O)OCCCP(=O)(O)O)CC6)CSc6ccccc6)c(S(=O)(=O)C(F)(F)F)c5)cc4)CC3)c2)c(-c2ccc(Cl)cc2)n1C(C)C", "PANC-1 complex spheroid growth, percent test/control", "%", 110),
    ("NC(=O)C(=Cn1cnc(-c2cc(C(F)(F)F)cc(C(F)(F)F)c2)n1)c1cncnc1 + Cc1c(S(C)(=O)=O)c(-c2cc(F)cc(N3CCN(c4ccc(NS(=O)(=O)c5ccc(NC(CCN6CCC(C(=O)OCCCP(=O)(O)O)CC6)CSc6ccccc6)c(S(=O)(=O)C(F)(F)F)c5)cc4)CC3)c2)c(-c2ccc(Cl)cc2)n1C(C)C", "PANC-1 complex spheroid growth, percent test/control", "%", 90.8),
    ("Cc1nc(N2CCC3(CC2)COC(C)C3N)c(CO)nc1Sc1ccnc(N)c1Cl (stereo not drawn) + Cc1c(S(C)(=O)=O)c(-c2cc(F)cc(N3CCN(c4ccc(NS(=O)(=O)c5ccc(NC(CCN6CCC(C(=O)OCCCP(=O)(O)O)CC6)CSc6ccccc6)c(S(=O)(=O)C(F)(F)F)c5)cc4)CC3)c2)c(-c2ccc(Cl)cc2)n1C(C)C", "PANC-1 complex spheroid growth, percent test/control", "%", 94.1),
]

----------
system: PANC-1 complex spheroid growth, percent test/control; experiment: Anticancer human tumor PANC-1 cell line growth inhibition [Asc]; details: second compound 0.316 µM; first compound 10 µM; stronger effect = lower value;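 also: spheroids exposed to agents for 7 days; percent viability relative to DMSO vehicle wells taken as 100%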
Test Readout: viability, T/C (%)

# Compound, Measured Target, Recorded Number
data = [
    ("C#Cc1c(F)ccc2cc(O)cc(-c3ncc4c(N5CC6CCC(C5)N6)nc(OCC56CCCN5CC(F)C6)nc4c3F)c12 (configuration not stated) + CNC(C)C(=O)NC1CN(S(=O)(=O)c2cccc(S(=O)(=O)N3CCC4CCC(C(=O)NC(c5ccccc5)c5ccccc5)N4C(=O)C(NC(=O)C(C)NC)C3)c2)CCC2CCC(C(=O)NC(c3ccccc3)c3ccccc3)N2C1=O", "PANC-1 complex spheroid growth, percent test/control", 70.3),
    ("C=CC(=O)N1CCN(c2nc(=O)n(-c3c(C)ccnc3C(C)C)c3nc(-c4c(O)cccc4F)c(F)cc23)C(C)C1 (configuration not stated) + Cc1c(S(C)(=O)=O)c(-c2cc(F)cc(N3CCN(c4ccc(NS(=O)(=O)c5ccc(NC(CCN6CCC(C(=O)OCCCP(=O)(O)O)CC6)CSc6ccccc6)c(S(=O)(=O)C(F)(F)F)c5)cc4)CC3)c2)c(-c2ccc(Cl)cc2)n1C(C)C", "PANC-1 complex spheroid growth, percent test/control", 98),
]

----------
tested on: PANC-1 complex spheroid growth, percent test/control; assay: Anticancer human tumor PANC-1 cell line growth inhibition [Asc]; details: second compound 0.949 µM; first compound 0.1 µM; stronger effect = lower value;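 also: spheroids exposed to agents for 7 days; percent viability relative to DMSO vehicle wells taken as 100%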
Parameter viability, T/C: see the listing below.
Test Readout: viability, T/C (%)

# Compound, Readout Unit, Recorded Number
records = [
    ("C#Cc1c(F)ccc2cc(O)cc(-c3ncc4c(N5CC6CCC(C5)N6)nc(OCC56CCCN5CC(F)C6)nc4c3F)c12 (stereo not given) + CCN1C(C(=O)NC23CCC(C(=O)O)(CC2)CC3)C(c2cccc(Cl)c2F)C2(C(=O)Nc3cc(Cl)ccc32)C12CCCCC2", "%", 85.5),
    ("Cn1ncnc1[C@H]1c2n[nH]c(=O)c3cc(F)cc(c23)N[C@@H]1c1ccc(F)cc1 + CCN1C(C(=O)NC23CCC(C(=O)O)(CC2)CC3)C(c2cccc(Cl)c2F)C2(C(=O)Nc3cc(Cl)ccc32)C12CCCCC2", "%", 114),
    ("COc1c(OCCCN2CCOCC2)ccc2c3n(c(=NC(=O)c4cnc(N)nc4)nc12)CCN3 + CCN1C(C(=O)NC23CCC(C(=O)O)(CC2)CC3)C(c2cccc(Cl)c2F)C2(C(=O)Nc3cc(Cl)ccc32)C12CCCCC2", "%", 75.3),
    ("C=C(F)C(=O)N1CCN(c2nc(OCC3CCCN3C)nc3c2CCN(c2cccc4cccc(Cl)c24)C3)CC1CC#N (stereo not given) + CCN1C(C(=O)NC23CCC(C(=O)O)(CC2)CC3)C(c2cccc(Cl)c2F)C2(C(=O)Nc3cc(Cl)ccc32)C12CCCCC2", "%", 104),
    ("O=C(c1ccc(F)c(F)c1Nc1ccc(I)cc1F)N1CC(O)([C@@H]2CCCCN2)C1 + CCN1C(C(=O)NC23CCC(C(=O)O)(CC2)CC3)C(c2cccc(Cl)c2F)C2(C(=O)Nc3cc(Cl)ccc32)C12CCCCC2", "%", 105),
    ("CCN1CCN(Cc2ccc(Nc3ncc(F)c(-c4cc(F)c5nc(C)n(C(C)C)c5c4)n3)nc2)CC1 + CCN1C(C(=O)NC23CCC(C(=O)O)(CC2)CC3)C(c2cccc(Cl)c2F)C2(C(=O)Nc3cc(Cl)ccc32)C12CCCCC2", "%", 111),
    ("CNC(C)C(=O)NC1CN(S(=O)(=O)c2cccc(S(=O)(=O)N3CCC4CCC(C(=O)NC(c5ccccc5)c5ccccc5)N4C(=O)C(NC(=O)C(C)NC)C3)c2)CCC2CCC(C(=O)NC(c3ccccc3)c3ccccc3)N2C1=O (stereo not given) + CCN1C(C(=O)NC23CCC(C(=O)O)(CC2)CC3)C(c2cccc(Cl)c2F)C2(C(=O)Nc3cc(Cl)ccc32)C12CCCCC2", "%", 97.8),
    ("O=C(c1cc(Cc2n[nH]c(=O)c3ccccc23)ccc1F)N1CCN(C(=O)C2CC2)CC1 + CCN1C(C(=O)NC23CCC(C(=O)O)(CC2)CC3)C(c2cccc(Cl)c2F)C2(C(=O)Nc3cc(Cl)ccc32)C12CCCCC2", "%", 103),
    ("NC1CCC(NC2CC2c2ccccc2)CC1 (stereo not given) + CCN1C(C(=O)NC23CCC(C(=O)O)(CC2)CC3)C(c2cccc(Cl)c2F)C2(C(=O)Nc3cc(Cl)ccc32)C12CCCCC2", "%", 89.2),
    ("C=CC(=O)N1CCN(c2nc(=O)n(-c3c(C)ccnc3C(C)C)c3nc(-c4c(O)cccc4F)c(F)cc23)C(C)C1 (stereo not given) + CCN1C(C(=O)NC23CCC(C(=O)O)(CC2)CC3)C(c2cccc(Cl)c2F)C2(C(=O)Nc3cc(Cl)ccc32)C12CCCCC2", "%", 107),
]
